Here we list compounds with their recorded IC50 when tested on Protein deacetylase HDAC6 (Homo sapiens, UniProt Q9UBN7).
Sequence (Q9UBN7 whole entry): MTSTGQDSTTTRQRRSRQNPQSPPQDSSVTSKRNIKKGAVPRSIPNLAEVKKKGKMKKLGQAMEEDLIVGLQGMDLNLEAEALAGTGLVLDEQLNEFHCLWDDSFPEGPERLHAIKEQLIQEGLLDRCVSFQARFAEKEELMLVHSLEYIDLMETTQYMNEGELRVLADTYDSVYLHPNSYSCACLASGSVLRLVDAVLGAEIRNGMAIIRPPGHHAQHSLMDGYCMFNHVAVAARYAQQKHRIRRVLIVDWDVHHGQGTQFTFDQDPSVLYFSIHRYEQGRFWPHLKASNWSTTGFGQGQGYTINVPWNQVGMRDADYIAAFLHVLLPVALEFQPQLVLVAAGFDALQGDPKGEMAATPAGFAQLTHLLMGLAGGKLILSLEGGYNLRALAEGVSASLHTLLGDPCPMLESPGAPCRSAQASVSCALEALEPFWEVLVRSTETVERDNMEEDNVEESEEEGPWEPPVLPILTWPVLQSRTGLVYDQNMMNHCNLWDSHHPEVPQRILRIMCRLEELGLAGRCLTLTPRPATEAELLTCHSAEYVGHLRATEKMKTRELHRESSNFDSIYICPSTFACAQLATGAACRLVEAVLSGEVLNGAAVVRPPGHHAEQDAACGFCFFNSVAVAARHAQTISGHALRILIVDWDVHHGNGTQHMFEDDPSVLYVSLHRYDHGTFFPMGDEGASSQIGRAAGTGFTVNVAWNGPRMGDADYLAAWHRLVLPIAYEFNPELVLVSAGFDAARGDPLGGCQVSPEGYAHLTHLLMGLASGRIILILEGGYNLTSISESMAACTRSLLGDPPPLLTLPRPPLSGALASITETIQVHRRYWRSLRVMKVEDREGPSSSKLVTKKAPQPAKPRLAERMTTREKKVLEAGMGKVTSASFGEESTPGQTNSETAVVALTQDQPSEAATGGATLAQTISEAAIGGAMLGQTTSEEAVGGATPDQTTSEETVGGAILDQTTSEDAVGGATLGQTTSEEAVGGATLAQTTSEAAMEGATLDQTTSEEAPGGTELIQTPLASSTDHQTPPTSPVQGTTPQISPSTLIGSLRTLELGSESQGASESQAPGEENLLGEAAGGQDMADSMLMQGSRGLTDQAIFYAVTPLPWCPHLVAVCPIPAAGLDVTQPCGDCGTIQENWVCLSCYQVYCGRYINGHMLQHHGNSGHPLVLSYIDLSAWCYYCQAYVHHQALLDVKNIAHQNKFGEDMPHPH
measure name: IC50 (nM)

INSERT INTO measurements (smiles_input, measure_name, unit_info, reported_value) VALUES
  ('O=C(NO)c1noc(-c2ccc(Br)cc2)n1', 'IC50', 'nM', 2770),
  ('O=C(NO)c1csc(-c2cnccn2)n1', 'IC50', 'nM', 8850),
  ('COc1ccc(-c2nc(C(=O)NO)co2)cc1', 'IC50', 'nM', 195),
  ('O=C(NO)c1coc(-c2ccccc2)n1', 'IC50', 'nM', 270),
  ('COc1ccc2cc(-c3nc(C(=O)NO)co3)ccc2c1', 'IC50', 'nM', 182),
  ('O=C(NO)c1csc(-c2ccccc2)n1', 'IC50', 'nM', 1910),
  ('O=C(NO)c1noc(-c2ccc(-c3ccccc3)cc2)n1', 'IC50', 'nM', 1310),
  ('O=C(NO)c1coc(-c2cccs2)n1', 'IC50', 'nM', 311),
  ('O=C(NO)c1csc(-c2ccc(Br)cc2)n1', 'IC50', 'nM', 1060);

###

target: Histone deacetylase 1 (Homo sapiens, UniProt Q13547)
Sequence (Q13547 whole entry): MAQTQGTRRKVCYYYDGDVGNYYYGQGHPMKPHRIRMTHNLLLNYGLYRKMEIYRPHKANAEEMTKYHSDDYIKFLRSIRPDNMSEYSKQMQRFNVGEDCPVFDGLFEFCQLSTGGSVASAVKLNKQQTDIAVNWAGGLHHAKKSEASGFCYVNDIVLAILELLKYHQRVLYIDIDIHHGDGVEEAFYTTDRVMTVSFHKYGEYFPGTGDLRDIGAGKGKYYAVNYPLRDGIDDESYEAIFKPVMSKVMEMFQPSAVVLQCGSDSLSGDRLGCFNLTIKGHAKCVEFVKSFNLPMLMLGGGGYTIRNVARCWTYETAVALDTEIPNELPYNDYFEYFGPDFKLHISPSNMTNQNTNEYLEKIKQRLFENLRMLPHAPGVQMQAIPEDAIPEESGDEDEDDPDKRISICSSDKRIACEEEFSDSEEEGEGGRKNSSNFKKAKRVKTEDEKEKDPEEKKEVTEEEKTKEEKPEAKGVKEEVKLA
IC50 reference
measure name: IC50

INSERT INTO assay_data (smiles_input, reported_value) VALUES
  ('O=C(NO)c1csc(C(c2ccccc2)c2ccccc2)n1', '47.7 µM'),
  ('O=C(NO)c1coc(-c2ccccc2)n1', '29.9 µM'),
  ('O=C(NO)c1noc(-c2ccccc2)n1', '25 µM'),
  ('O=C(NO)c1csc(-c2cnccn2)n1', '82.2 µM'),
  ('O=C(NO)c1coc(-c2cccc(-c3ccccc3)c2)n1', '19.1 µM'),
  ('O=C(NO)c1csc(-c2ccc(Br)cc2)n1', '17.5 µM'),
  ('O=C(NO)c1coc(-c2ccc(Cl)cc2)n1', '19.6 µM');

###

biological target: Histone deacetylase 8 (Homo sapiens)
Sequence (Q9BY41 whole entry): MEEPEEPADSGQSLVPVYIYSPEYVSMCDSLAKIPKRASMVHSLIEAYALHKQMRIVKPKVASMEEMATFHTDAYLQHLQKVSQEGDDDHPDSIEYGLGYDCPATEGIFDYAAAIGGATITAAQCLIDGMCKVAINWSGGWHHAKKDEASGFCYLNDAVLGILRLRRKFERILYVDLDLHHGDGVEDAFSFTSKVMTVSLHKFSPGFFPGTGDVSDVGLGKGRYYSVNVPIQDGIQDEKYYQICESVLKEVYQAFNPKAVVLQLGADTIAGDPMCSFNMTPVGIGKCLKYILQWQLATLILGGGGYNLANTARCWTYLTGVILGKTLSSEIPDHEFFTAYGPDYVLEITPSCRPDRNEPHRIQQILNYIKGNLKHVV
Threshold check on IC50: strictly below 30 µM is MET; on or above 30 µM is NOT MET.

INSERT INTO assay_data (smiles_input, assigned_class) VALUES
  ('O=C(NO)c1coc(-c2ccc(-c3ccccc3)cc2)n1', 'MET'),
  ('O=C(NO)c1coc(-c2ccc3ccccc3c2)n1', 'MET'),
  ('O=C(NO)c1coc(-c2ccccc2)n1', 'NOT MET'),
  ('O=C(NO)c1csc(-c2ccc(Br)cc2)n1', 'NOT MET'),
  ('O=C(NO)c1coc(-c2cccc(-c3ccccc3)c2)n1', 'MET'),
  ('O=C(NO)c1coc(-c2ccc(F)cc2)n1', 'NOT MET');

###

Target or system Histone deacetylase 1 (Homo sapiens, UniProt Q13547); recorded quantity pIC50.
pIC50: −log10 of the molar value.
measure name: pIC50

INSERT INTO results (smiles_input, measure_name, reported_value) VALUES
  ('COc1ccc2cc(-c3nc(C(=O)NO)co3)ccc2c1', 'pIC50', 4.65),
  ('COc1ccc(-c2nc(C(=O)NO)co2)cc1', 'pIC50', 4.48),
  ('O=C(NO)c1coc(-c2ccc(-c3ccccc3)cc2)n1', 'pIC50', 4.53),
  ('Cc1ccc(-c2nc(C(=O)NO)co2)cc1', 'pIC50', 4.40);
